B1: glmS ribozyme (parent)
chain: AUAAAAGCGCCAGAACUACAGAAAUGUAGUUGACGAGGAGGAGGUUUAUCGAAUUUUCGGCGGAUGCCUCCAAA

variants of: B1; assay: self-cleavage kobs at 10000 uM GlcN6P; higher = faster cleavage; RNA array; conditions: with glucosamine-6-phosphate
Fewer inactive variants are shown than the library holds.
Parameter: self-cleavage kobs at 10000 uM GlcN6P. Scope: all listed entries.

Example entries begin here.
Alteration: G40A U45A
Property label: self-cleavage kobs at 10000 uM GlcN6P
Value: 0.00427 s⁻¹
--
Alteration: A36U G40A G43C A52G
Property label: self-cleavage kobs at 10000 uM GlcN6P
Value: 0.00106 s⁻¹
--
Alteration: C8A A48C
Property label: self-cleavage kobs at 10000 uM GlcN6P
Value: < 1e-05 s⁻¹
--
Alteration: G32U G38A
Property label: self-cleavage kobs at 10000 uM GlcN6P
Value: < 1e-05 s⁻¹
--
Alteration: A15C U47G
Property label: self-cleavage kobs at 10000 uM GlcN6P
Value: 0.000889 s⁻¹
--
Alteration: A12U A15G A39G
Property label: self-cleavage kobs at 10000 uM GlcN6P
Value: 0.0688 s⁻¹

Specify self-cleavage kobs at 10000 uM GlcN6P for C8G A52G U55G C67G C68U and stop. 3.18e-05 s⁻¹

State its self-cleavage kobs at 10000 uM GlcN6P: A6G C11U C16A A64G < 1e-05 s⁻¹

Indicate the recorded self-cleavage kobs at 10000 uM GlcN6P value for this variant: U56G C70G 9.54e-05 s⁻¹

State, in one line, measured self-cleavage kobs at 10000 uM GlcN6P of G37A U57C G59C < 1e-05 s⁻¹

src = the supplement of paper PMC7125110
